All figures here come from PubChem BioAssay AID1159580.

- Test Details: chemical genetic growth profiling, strain panel (AID 1159580);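 note: tested at 20 µM; growth read once vehicle control cultures reached saturation at 30 °C; 1 = growth at the plate median or of vehicle wells; lower values mean less growth of the strain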
- Test Parameters: S. cerevisiae deletion strains, growth OD, locus YDL035C, strain GPR1, active compounds read low
The campaign covered roughly 5,500 compounds. About 2,000 (36%) were called active. Inconclusive results (about 18%) are left out. This is one part of the list.
# strict inequality: normalized growth < 1 yields true (1), everything else yields false (0)

Input line: Check if normalized growth falls below 1 for CC1=CC(=O)C(C(C)C)=CC1=O .
Output line: true (1)

Input line: Check if normalized growth falls below 1 for COc1ccc(-c2cc(=O)c3c(O)cc(O)cc3o2)cc1 .
Output line: false (0)

* * *

- Test Details: chemical genetic growth profiling, strain panel (AID 1159580)
- Test Parameters: S. cerevisiae deletion strains, growth OD, locus YKL009W, strain mrt4
Among all 5,500 compounds or so, about 2,000 (36%) were called active. Inconclusive results (about 18%) are left out. Rule as the data show it: active = normalized growth mostly below about 0.91 (no sharp cut-off); inconclusive = no clear call, values can overlap the other calls; inactive = mostly above about 0.92. The list shows a part of the results.
Field 'call' accepts yes (1) (active), no (0) (inactive)

Compound	Label Value
CCn1nc(C(=O)O)c(=O)c2cc3c(cc21)OCO3	no (0)
Nc1ccc(S(=O)(=O)Nc2ncccn2)cc1	no (0)
CC1(C)[C@@H]2CC[C@@]1(C)C(=O)C2	no (0)
COC(=O)NC(=S)Nc1ccccc1NC(=S)NC(=O)OC	no (0)
NC[C@@H]1O[C@H](O[C@@H]2[C@@H](CO)OC(O[C@@H]3[C@@H](O)[C@H](N)C[C@H](N)[C@H]3O[C@H]3O[C@H](CO)[C@@H](O)[C@H](O)[C@H]3N)[C@@H]2O)[C@H](N)[C@@H](O)[C@@H]1O (stereo not given in full)	no (0)
COC(=O)C[C@H]1C(C)(C)[C@@H](O)[C@@H]2CC3=C4CC(O)O[C@@H](c5ccoc5)[C@]4(C)CCC3[C@@]1(C)C2=O (stereo not given in full)	no (0)
CCC(=O)O[C@]1(C(=O)CCl)[C@@H](C)CC2C3CCC4=CC(=O)C=C[C@]4(C)[C@@]3(F)[C@@H](O)C[C@@]21C (stereo not given in full)	no (0)
COC1=CC(C)[C@@H]2C[C@H]3OC(=O)C[C@H]4C(C)=C(OC)C(=O)C([C@@]34C)[C@@]2(C)C1=O (stereo not given in full)	no (0)
Cc1ccc(C(C)C)c(O)c1C(=O)O	no (0)
CC12CCC3C(CCC4(O)CC(O)CCC34/C=N/NC(N)=O)C1(O)CCC2C1=CC(=O)OC1 (stereo not given)	no (0)

Input line: Lab log entry: CCCCCC(O)C1C(=O)OC(C)C(O)/C=C/C=C/C=C/C=C/C=C(\C)C(O)CC(O)CC(O)CC(O)CC(O)CC(O)CC1O (stereo not given) — outcome as called in the assay?
Output line: no (0)

Input line: Lab log entry: Oc1ccc2c3c1OC1[C@@H](O)CC[C@@]4(O)[C@@H](C2)N(CC2CCC2)CC[C@]314 (stereo not given in full) — outcome as called in the assay?
Output line: no (0)

Input line: Lab log entry: COC(=O)[C@H]1[C@H]2C[C@H]3c4[nH]c5cc(OC)ccc5c4CCN3C[C@H]2C[C@@H](OC(=O)c2cc(OC)c(OC)c(OC)c2)[C@@H]1OC — outcome as called in the assay?
Output line: no (0)

Input line: Lab log entry: CC(=O)OC1CC[C@@]2(C)C(CCC3C2CC[C@]2(C)C(C4=CC(=O)OC4)C(OC(C)=O)CC32O)C1 (stereo not given in full) — outcome as called in the assay?
Output line: no (0)

Input line: Lab log entry: CC1=CC(=O)C(C(C)C)=CC1=O — outcome as called in the assay?
Output line: no (0)

Input line: Lab log entry: CC(=O)OCC(=O)[C@@]1(O)CCC2C3C[C@H](C)C4=CC(=O)C=CC4(C)C3[C@@H](O)CC21C (stereo not given in full) — outcome as called in the assay?
Output line: no (0)

Input line: Lab log entry: CC(=O)O[C@@H]1c2c(ccc3ccc(=O)oc23)OC(C)(C)[C@@H]1OC(=O)CC(C)C — outcome as called in the assay?
Output line: no (0)

Input line: Lab log entry: C[C@]12CCC3C(CC[C@]4(O)C[C@@H](O)CC[C@]34C=O)[C@@]1(O)CCC2C1=CC(=O)OC1 (stereo not given in full) — outcome as called in the assay?
Output line: no (0)

Input line: Lab log entry: COC1C(O)C(O[C@H]2CC[C@]3(C=O)C4C(CC[C@]3(O)C2)[C@@]2(O)CC[C@H](C3=CC(=O)OC3)[C@@]2(C)C[C@H]4OC(C)=O)OC(C)C1OC(C)=O (stereo not given in full) — outcome as called in the assay?
Output line: no (0)

Input line: Lab log entry: NC(=O)c1ccccc1O — outcome as called in the assay?
Output line: no (0)

* * *

- Test Details: chemical genetic growth profiling, strain panel (AID 1159580);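 note: tested at 20 µM; growth read once vehicle control cultures reached saturation at 30 °C; 1 = growth at the plate median or of vehicle wells; lower values mean less growth of the strain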
- Test Parameters: S. cerevisiae deletion strains, growth OD, locus YOR136W, strain idh2, active compounds read low
Out of some 5,500 compounds screened, about 2,000 (36%) were called active. Not shown: some 18% with an inconclusive outcome. The list shows a part of the results.
Experimental Endpoint: normalized growth
Give bare numbers.

Recorded results for 5 compounds are shown here.
Compound	Experimental Endpoint	Numeric Readout
C[C@H]1O[C@@H](O[C@H]2[C@@H](O)C[C@H](O[C@H]3[C@@H](O)C[C@H](O[C@H]4CC[C@]5(C)C6C[C@@H](O)[C@]7(C)[C@@H](C8=CC(=O)OC8)CC[C@]7(O)C6CC[C@@H]5C4)O[C@@H]3C)O[C@@H]2C)C[C@H](O)[C@@H]1O (stereo partly specified)	normalized growth	0.974
C[C@H]1OC(O[C@H]2[C@@H](O)CC(O[C@H]3[C@@H](O)C[C@H](O[C@H]4CC[C@]5(C)C6CC[C@]7(C)[C@@H](C8=CC(=O)OC8)[C@@H](O)C[C@]7(O)[C@@H]6CC[C@@H]5C4)O[C@@H]3C)O[C@@H]2C)C[C@H](O)C1O (stereo partly specified)	normalized growth	0.98
CC12CCC3C(CCC4(O)CC(O)CCC34/C=N/NC(N)=O)C1(O)CCC2C1=CC(=O)OC1 (stereo unspecified)	normalized growth	0.98
COc1cc(O)c2c(=O)cc(-c3ccc(OC)c(-c4c(O)cc(O)c5c(=O)cc(-c6ccc(O)cc6)oc45)c3)oc2c1	normalized growth	0.993
COc1cc(C)c2c(=O)c3c(O)cc(OC)cc3oc2c1	normalized growth	0.979

Now for the compound whose normalized growth we want.
Input line: Please indicate normalized growth recorded for CC1(C)C(O)CC(=O)C2(C)C1CC(O)C1(C)C2CCC2(C)C(c3ccoc3)OC(=O)C3OC321 (stereo unspecified)
Output line: 1.01

* * *

Hi there, I'd appreciate the recorded normalized growth for every entry that follows.
- Test Details: chemical genetic growth profiling, strain panel (AID 1159580);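 note: tested at 20 µM; growth read once vehicle control cultures reached saturation at 30 °C; 1 = growth at the plate median or of vehicle wells; lower values mean less growth of the strain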
- Test Parameters: S. cerevisiae deletion strains, growth OD, locus YNL209W, strain ssb2, active compounds read low
Out of some 5,500 compounds screened, about 2,000 (36%) were called active. Roughly 18% stayed inconclusive and do not appear here. The list shows a part of the results.
Numbers only.

Compound	normalized growth
COc1cc2c(cc1OC)-c1c(oc3cc(O)cc(O)c3c1=O)CO2	1.02

Look up normalized growth for the entries below, preserving their order.
1. O=S(=O)(O)O
2. COc1c(O)cc2c(c1O)[C@H]1O[C@H](CO)[C@@H](O)[C@H](O)[C@@H]1OC2=O
3. CC(=O)OCC(=O)[C@@]1(O)CCC2C3C[C@H](C)C4=CC(=O)C=CC4(C)C3[C@@H](O)CC21C (some centres undefined)

Output line:
0.975
1.02
1

* * *

- Test Details: chemical genetic growth profiling, strain panel (AID 1159580);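 note: tested at 20 µM; growth read once vehicle control cultures reached saturation at 30 °C; 1 = growth at the plate median or of vehicle wells; lower values mean less growth of the strain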
- Test Parameters: S. cerevisiae deletion strains, growth OD, locus YJL166W, strain qcr8, active compounds read low
In all, about 5,500 compounds went through this assay and about 2,000 (36%) were called active. Not shown: some 18% with an inconclusive outcome. The list shows a part of the results.
Experimental Endpoint: normalized growth
Answers are plain numbers.

Recorded results for 4 compounds are shown here.
Compound	Numeric Readout
O=C(Oc1ccccc1C(=O)O)c1ccccc1O	0.964
COC1CC(OC2CCC3(C)C(CCC4C3CCC3(C)C(C5=CC(=O)OC5)C(OC(C)=O)CC43O)C2)OC(C)C1O (stereo not given)	1.03
CC(=O)OC1CC[C@@]2(C)C(CCC3C2CC[C@]2(C)C(C4=CC(=O)OC4)C(OC(C)=O)CC32O)C1 (stereo not given in full)	0.957
C[C@H]1O[C@@H](O[C@H]2[C@@H](O)C[C@H](O[C@H]3[C@@H](O)C[C@H](O[C@H]4CC[C@]5(C)C6CC[C@]7(C)[C@@H](C8=CC(=O)OC8)CC[C@]7(O)C6CC[C@@H]5C4)O[C@@H]3C)O[C@@H]2C)C[C@H](O)[C@@H]1O (stereo not given in full)	1.03

Now for the compound whose normalized growth we want.
Input line: Please indicate normalized growth recorded for C[C@]12CCC3C(CC[C@]4(O)C[C@@H](O)CC[C@]34C=O)[C@@]1(O)CCC2C1=CC(=O)OC1 (stereo not given in full)
Output line: 1
